Test: Inhibition of AP-1 and NF-kB mediated transcriptional activation in Jurkat T-cells
Type: functional, cell-based
Details: Homo sapiens
Measured Property: IC50 (nM)

Some solved entries appear below for comparison.
[[record]]
compound = "COc1ccc2nc(-c3cccs3)nc(NN3C(=O)C=C(C)C3=O)c2c1"
measured_property = "IC50"
number = 3

[[record]]
compound = "COc1ccc2nc(C(F)(F)F)nc(NN3C(=O)C=C(C)C3=O)c2c1"
measured_property = "IC50"
number = 30

[[record]]
compound = "COc1cccc2nc(C(F)(F)F)nc(NN3C(=O)C=C(C)C3=O)c12"
measured_property = "IC50"
number = 10

[[record]]
compound = "CC1=CC(=O)N(Nc2nc(C(F)(F)F)nc3ccccc23)C1=O"
measured_property = "IC50"
number = 100

[[record]]
compound = "CSc1ccc2nc(C(F)(F)F)nc(NN3C(=O)C=C(C)C3=O)c2c1"
measured_property = "IC50"
number = 80

[[record]]
compound = "COc1cc2c(NN3C(=O)C=C(C)C3=O)nc(-c3cccs3)nc2c(OC)c1OC"
measured_property = "IC50"
number = 40

[[record]]
compound = "COc1cccc2nc(-c3cccs3)nc(NN3C(=O)C=C(C)C3=O)c12 [AS-602868]"
measured_property = "IC50"
number = 8

[[record]]
compound = "CC1=CC(=O)N(Nc2nc(-c3cccs3)nc3ccc(Cl)cc23)C1=O"
measured_property = "IC50"
number = 20


a: CC1=CC(=O)N(Nc2nc(C(F)(F)F)nc3ccc(O)cc23)C1=O
b: COc1cc2nc(-c3cccs3)nc(NN3C(=O)C=C(C)C3=O)c2cc1OC
Inquiry: Which of the two gives a bigger number for IC50: a or b ? Give the label of your selection.
Reply text: a
(a: 100 nM, b: 50 nM)

P: CC1=CC(=O)N(Nc2nc(-c3ccccc3)nc3ccccc23)C1=O
Q: CC1=CC(=O)N(Nc2nc(-c3cccs3)nc3cccc(F)c23)C1=O
Inquiry: Which of the two gives a bigger number for IC50: P or Q ? Give the label of your selection.
Reply text: P
(P: 100 nM, Q: 50 nM)

1: CC1=CC(=O)N(Nc2nc(-c3cccs3)nc3cc(N(C)C)ccc23)C1=O
2: CC1=CC(=O)N(Nc2nc(C(F)(F)F)nc3cccc(C)c23)C1=O
Inquiry: Which entry shows the lesser value of IC50 here, 1 or 2 ? Give the label of your selection.
Reply text: 1

1: CC1=CC(=O)N(Nc2nc(C(F)(F)F)nc3cc(N(C)C)ccc23)C1=O
2: CC1=CC(=O)N(Nc2nc(C(F)(F)F)nc3ccc(S(C)(=O)=O)cc23)C1=O
3: CC1=CC(=O)N(Nc2nc(C(F)(F)F)nc3ccc([S+](C)[O-])cc23)C1=O (stereo not drawn)
Inquiry: List from greatest to least IC50. Your answer should be the labels, listed in the requested order.
Reply text: 2, 3, 1

I: CC1=CC(=O)N(Nc2nc(-c3cccs3)nc3cccc(C)c23)C1=O
II: COc1cccc2c(NN3C(=O)C=C(C)C3=O)nc(-c3cccs3)nc12
Inquiry: Which entry shows the lesser value of IC50 here, I or II ? Give the label of your selection.
Reply text: I

I: CC1=CC(=O)N(Nc2nc(C(F)(F)F)nc3cc(N4CCCCC4)ccc23)C1=O
II: CC1=CC(=O)N(Nc2nc(-c3cccs3)nc3ccccc23)C1=O
III: COc1ccc2c(NN3C(=O)C=C(C)C3=O)nc(-c3cccs3)nc2c1
Inquiry: Form: Sort by [IC50] Order [ ascending ] Your answer should be the labels, listed in the requested order.
Reply text: III, II, I
(III: 20 nM, II: 60 nM, I: 200 nM)

Numbers sourced from ChEMBL document CHEMBL1136441.
